# Tested on: SF-268
# test: NCI tumour cell line growth inhibition, 48 h
Active and inactive are the calls of the source. No stated cut-off is given here; in the data, active = GI50 up to about 1.1 µM and inactive = higher. Where a SMILES comes first, the peptide text is derived from it. The star is where a group is joined. Boc = CC(C)(C)OC(=O)*; tBu = CC(C)(C)*
Listed next: entries and their corresponding GI50.

Answered cases to consult:
Query CCNCCNc1c2ccccc2nc2ccccc12 on SF-268; GI50 returned: 1.35 µM (inactive)

Query c1ccc2c(CNCCCCCCCCNCc3cccc4ccccc34)cccc2c1 on SF-268; GI50 returned: 7.52 µM (inactive)

Query O=C(NC12CC3CCC1CC(C3)C2)[C@@H]1CCCN1C(=O)OCc1ccccc1 (stereo not given in full) on SF-268; GI50 returned: 94.8 µM (inactive)

Query CO/N=[N+](\[O-])NC(C)C on SF-268; GI50 returned: > 100 µM (inactive)

Query C=CCCC(On1c(-c2ccc(Cl)cc2)csc1=S)c1ccccc1 (stereo not given) on SF-268; GI50 returned: 34 µM (inactive)

Query CC(OC(C)(C)C)C(NC(=O)C(N)CCCCNC(=O)OC(C)(C)C)C(=O)NC(Cc1ccccc1)C(=O)O (stereo not given) (H-Lys(Boc)-Thr(tBu)-Phe-OH; configuration not given here) on SF-268; GI50 returned: > 100 µM (inactive)

Query O=C1/C(=C\c2ccc(-c3ccc(Cl)cc3Cl)o2)SC2NC(COc3ccc(Cl)cc3)=NN12 (stereo not given) on SF-268; GI50 returned: 36 µM (inactive)

Query CCCCCC(=O)Cc1cc(OC)cc2c1C(=O)Oc1cc(O)c(C(=O)O)c(CC(=O)CCCCC)c1O2 on SF-268; GI50 returned: 35.2 µM (inactive)

Query O=[N+]([O-])c1ccc(Cl)cc1C1SCc2nc3ccccc3n21 (stereo not given) on SF-268; GI50 returned: 42.1 µM (inactive)

Then there is this molecule:
Query O=C(O)CCC(NC(=O)c1ccc(Oc2nc3ccccc3nc2C(=O)O)cc1)C(=O)O (stereo not given) on SF-268; GI50 returned: > 100 µM (inactive)

----------
# Tested on: MDA-MB-435
# test: NCI tumour cell line growth inhibition, 48 h
Calls of active or inactive are those of the source. Rule as the data show it: active = GI50 up to about 1.1 µM and inactive = higher.
attribute measured: GI50

Answered cases to consult:
For Oc1cccc(-c2cn3cc(C(F)(F)F)ccc3n2)c1 the molecule record lists GI50 as 32 µM (inactive)

For Cc1ccc(-c2n[nH]c(=O)n2/N=C\c2ccc([N+](=O)[O-])cc2)cc1 the molecule record lists GI50 as 35 µM (inactive)

For CN(/N=C/c1ccccn1)C1=NCCN1 the molecule record lists GI50 as > 100 µM (inactive)

For COc1ccc(-c2cc(C3CC3)nc(SCC(=O)O)c2C#N)cc1 the molecule record lists GI50 as > 100 µM (inactive)

More entries:
For O=C(Cc1ccccc1CCO)NCCc1ccccc1 the molecule record lists GI50 as > 100 µM (inactive)

For COc1ccc2c(c1OC)C(=O)N/C2=C\c1c(CCN(C)C)cc2c(c1OC)OCO2 the molecule record lists GI50 as 31.5 µM (inactive)

For COc1ccc2c(C)cc(N/N=C(\C)C=O)nc2c1 the molecule record lists GI50 as 10.8 µM (inactive)

For C#CCN(C(=O)C(F)(F)F)C(/C=C\C(=O)OC)(C(=O)OCC)C(=O)OCC the molecule record lists GI50 as > 100 µM (inactive)

For COc1cc([N+](=O)[O-])ccc1N1C(=O)C2c3[nH]c4ccccc4c3C3CCC(C(C)(C)C)CC3C2C1=O (stereo not given) the molecule record lists GI50 as 17.4 µM (inactive)

For CN(C)C12C=CC=CC3=C(c4ccccc4)C(c4ccccc4)=C(c4ccccc4)C31c1ccccc1C2 (stereo not given) the molecule record lists GI50 as > 100 µM (inactive)
